target: T1, biotin-labeled recombinant EGFRvIII protein (UniProt P00533 25-645, biotin-labeled); assay: competitive ELISA; competitor Control antibody 02
T1 construct: the construct is not described
For each of the binders below, state its competition rate.
One number for each entry, in %.

Please review the following examples before continuing.
Provide one value: measured competition rate of Murine anti-7E5 (antibody, V domains shown, Mouse hybridoma antibody; also called 7E5-2A9; murine anti-7E5-2) VH: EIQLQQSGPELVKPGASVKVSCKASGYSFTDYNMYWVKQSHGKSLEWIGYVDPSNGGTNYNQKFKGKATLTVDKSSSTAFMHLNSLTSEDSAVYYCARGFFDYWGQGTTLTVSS VL: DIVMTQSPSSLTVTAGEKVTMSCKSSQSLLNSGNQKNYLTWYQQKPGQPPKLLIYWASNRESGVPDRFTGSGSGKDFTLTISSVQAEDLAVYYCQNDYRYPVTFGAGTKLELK
66

Provide one value: measured competition rate of Murine anti-64F1 (antibody, V domains shown, Mouse hybridoma antibody; also called 64F1F8) VH: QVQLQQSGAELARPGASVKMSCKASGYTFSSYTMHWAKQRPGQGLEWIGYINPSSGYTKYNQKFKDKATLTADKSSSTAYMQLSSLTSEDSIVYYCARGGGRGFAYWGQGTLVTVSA VL: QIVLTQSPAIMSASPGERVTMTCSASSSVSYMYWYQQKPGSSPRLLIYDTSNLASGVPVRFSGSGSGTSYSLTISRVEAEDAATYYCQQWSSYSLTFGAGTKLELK
69

Provide one value: measured competition rate of Murine anti-63A10 (antibody, V domains shown, Mouse hybridoma antibody; also called 63A10A7) VH: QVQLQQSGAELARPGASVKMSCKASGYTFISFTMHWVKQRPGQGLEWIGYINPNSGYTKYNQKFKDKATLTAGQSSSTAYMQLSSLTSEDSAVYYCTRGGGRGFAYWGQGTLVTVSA VL: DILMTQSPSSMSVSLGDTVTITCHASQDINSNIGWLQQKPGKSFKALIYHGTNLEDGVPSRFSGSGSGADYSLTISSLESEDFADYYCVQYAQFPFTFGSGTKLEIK
79

Turning to the following binder.
Provide one value: measured competition rate of Murine anti-75G7 (antibody, V domains shown, Mouse hybridoma antibody; also called 75G7C6) VH: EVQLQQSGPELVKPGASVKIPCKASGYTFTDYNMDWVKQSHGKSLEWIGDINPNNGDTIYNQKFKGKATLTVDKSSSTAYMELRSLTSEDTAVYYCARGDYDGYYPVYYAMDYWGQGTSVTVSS VL: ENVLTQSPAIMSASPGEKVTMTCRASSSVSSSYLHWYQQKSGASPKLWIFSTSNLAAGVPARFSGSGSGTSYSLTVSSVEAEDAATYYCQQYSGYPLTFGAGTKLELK
-2
